biological target: human RORγ-LBD (Homo sapiens, UniProt P51449); construct: made in house; host or cells: E. coli (BL-21); experiment: ROR gamma coactivator peptide recruitment Alphascreen assay (RORγ-LBD binding to GRIP1 coactivator peptide); format: biochemical; settings: 5 nM human RORγ-LBD, 30 nM 7-β-hydroxycholesterol, 50 nM biotinylated GRIP1 coactivator peptide, overnight incubation at room temperature; read-out: result (pIC50, RORγ coactivator peptide recruitment Alphascreen assay) (converted)
Sequence (P51449 262-518): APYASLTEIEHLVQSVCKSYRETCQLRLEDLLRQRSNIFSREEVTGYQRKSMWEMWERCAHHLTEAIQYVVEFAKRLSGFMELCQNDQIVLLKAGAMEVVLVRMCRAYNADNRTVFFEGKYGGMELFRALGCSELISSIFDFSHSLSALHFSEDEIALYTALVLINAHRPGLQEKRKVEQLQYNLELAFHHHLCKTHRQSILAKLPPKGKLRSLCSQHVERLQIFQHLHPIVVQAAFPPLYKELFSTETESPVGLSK
Field: log10 of IC50. Provide a value for each of the molecules that follow.
Please note: log10 values; quantity IC50; unit nM.

Inquiry: If you can, please state the reported log10 of IC50 value of C[C@]1(C(=O)O)CC[C@H](n2ncc(C(=O)N(CC(=O)c3c(Cl)cncc3Cl)CC3CCC3)c2C(F)(F)F)CC1 .
Reply text: 1.00

Inquiry: If you can, please state the reported log10 of IC50 value of C[C@]1(C(=O)O)CC[C@H](n2ncc(C(=O)N(C[C@H](O)c3c(Cl)cncc3Cl)CC3(F)CC3)c2C(F)(F)F)CC1 .
Reply text: 2.38

Inquiry: If you can, please state the reported log10 of IC50 value of Cc1cc(F)c(C(=O)CN(C[C@]2(C)CCCO2)C(=O)c2cnn([C@H]3CC[C@](C)(C(=O)O)CC3)c2C(F)(F)F)c(Cl)c1 .
Reply text: 1.05

Inquiry: If you can, please state the reported log10 of IC50 value of C[C@H]1C[C@H](n2ncc(C(=O)N(CC(=O)c3c(Cl)cncc3Cl)CC(C)(C)C)c2C(F)(F)F)CC[C@H]1C(=O)O .
Reply text: 1.13

Inquiry: If you can, please state the reported log10 of IC50 value of C[C@]1(CN(CC(=O)c2c(Cl)cncc2Cl)C(=O)c2cnn([C@H]3CC[C@](C)(C(=O)O)CC3)c2C(F)(F)F)CCCO1 .
Reply text: 1.31

Inquiry: If you can, please state the reported log10 of IC50 value of C[C@@H]1C[C@@H](n2ncc(C(=O)N(CC(=O)c3c(Cl)cncc3Cl)C[C@H]3CCC(C)(C)O3)c2C(F)(F)F)CC[C@@H]1C(=O)O .
Reply text: 1.27

Inquiry: If you can, please state the reported log10 of IC50 value of C[C@]1(C(=O)O)CC[C@H](n2ncc(C(=O)N(CC(=O)c3c(Cl)cc(F)cc3Cl)CC3CCCC3)c2C(F)(F)F)CC1 .
Reply text: 0.32

Inquiry: If you can, please state the reported log10 of IC50 value of Cc1cc(Cl)c(C(=O)CN(CC2CCCCC2)C(=O)c2cnn([C@H]3CC[C@H](C(=O)O)CC3)c2C(F)(F)F)c(Cl)c1 .
Reply text: 0.35

Inquiry: If you can, please state the reported log10 of IC50 value of CC(C)(C)C#CCN(CCc1c(Cl)cncc1Cl)C(=O)c1cnn([C@H]2CC[C@H](C(=O)O)CC2)c1C(F)(F)F .
Reply text: 1.07

Inquiry: If you can, please state the reported log10 of IC50 value of C[C@H](C(=O)O)[C@H]1CC[C@H](n2ncc(C(=O)N(CC(=O)c3c(Cl)cncc3Cl)Cc3cc(F)cc(F)c3)c2C(F)(F)F)CC1 .
Reply text: 0.88

Inquiry: If you can, please state the reported log10 of IC50 value of CC1(CN(CC(=O)c2c(Cl)cncc2Cl)C(=O)c2cnn([C@H]3CC[C@](C)(C(=O)O)CC3)c2C(F)(F)F)CC(F)(F)C1 .
Reply text: 0.81

Inquiry: If you can, please state the reported log10 of IC50 value of C[C@]1(C(=O)O)CC[C@H](n2ncc(C(=O)N(CC(=O)c3c(Cl)cncc3Cl)C[C@H]3CC3(F)F)c2C(F)(F)F)CC1 .
Reply text: 1.70

Inquiry: If you can, please state the reported log10 of IC50 value of CC(C)(C)CN(CC(=O)c1c(Cl)cncc1Cl)C(=O)c1cnn([C@@H]2CC[C@@](C)(C(=O)O)C[C@@H]2F)c1C(F)(F)F .
Reply text: 1.14

Inquiry: If you can, please state the reported log10 of IC50 value of CC(C)(C)CN(CC(=O)c1c(Cl)cnc2ccccc12)C(=O)c1cnn([C@H]2CC[C@](C)(C(=O)O)CC2)c1C(F)(F)F .
Reply text: 2.05

Inquiry: If you can, please state the reported log10 of IC50 value of CC(C)(C)C[C@H](CO)N(CCc1c(Cl)cccc1Cl)C(=O)c1cnn([C@H]2CC[C@](C)(C(=O)O)CC2)c1C(F)(F)F .
Reply text: 2.18

Inquiry: If you can, please state the reported log10 of IC50 value of O=C(O)C[C@H]1CC[C@H](n2ncc(C(=O)N(CC(=O)c3c(Cl)cncc3Cl)Cc3cc(F)cc(F)c3)c2C(F)(F)F)CC1 .
Reply text: 0.37

Inquiry: If you can, please state the reported log10 of IC50 value of Cc1ccc(CCN(Cc2ccc(Cl)cc2)C(=O)c2cnn([C@H]3CC[C@H](C(=O)O)CC3)c2C(F)(F)F)c(C)c1 .
Reply text: 0.77

Inquiry: If you can, please state the reported log10 of IC50 value of CC1(C)CC(CN(CC(=O)c2c(Cl)cncc2Cl)C(=O)c2cnn([C@H]3CC[C@](C)(C(=O)O)CC3)c2C(F)(F)F)C1 .
Reply text: 0.85

Inquiry: If you can, please state the reported log10 of IC50 value of C[C@]12CC[C@](CN(CC(=O)c3c(Cl)cccc3Cl)C(=O)c3cnn([C@H]4CC[C@@H](C(=O)O)CC4)c3C(F)(F)F)(CC1)C2 .
Reply text: 1.69

Inquiry: If you can, please state the reported log10 of IC50 value of CC1(C)CC[C@@H](CN(CC(=O)c2c(Cl)cccc2Cl)C(=O)c2cnn([C@H]3CC[C@](C)(C(=O)O)CC3)c2C(F)(F)F)O1 .
Reply text: 1.14

Inquiry: If you can, please state the reported log10 of IC50 value of C[C@@H]1C[C@@H](n2ncc(C(=O)N(CC(=O)c3c(Cl)cncc3Cl)C[C@@H]3CCC(C)(C)O3)c2C(F)(F)F)CC[C@@H]1C(=O)O .
Reply text: 1.34

Inquiry: If you can, please state the reported log10 of IC50 value of C[C@@H]1C[C@H](n2ncc(C(=O)N(CC(=O)c3c(Cl)cncc3Cl)C[C@]34CC[C@H](CC3)O4)c2C(F)(F)F)CC[C@H]1C(=O)O [Example 880] .
Reply text: 1.21

Inquiry: If you can, please state the reported log10 of IC50 value of CC1(CN(CC(=O)c2c(Cl)cc(F)cc2Cl)C(=O)c2cnn([C@H]3CC[C@@](C)(C(=O)O)CC3)c2C(F)(F)F)CC1 .
Reply text: 0.43

Inquiry: If you can, please state the reported log10 of IC50 value of C[C@]1(C(=O)O)CC[C@H](n2ncc(C(=O)N(CC(=O)c3c(Cl)cc(F)cc3Cl)CC3(F)CC3)c2C(F)(F)F)CC1 .
Reply text: 0.83
